Cited source for all entries: the supplement of paper PMC6555819

Tested on: PPARg:RXRa 270nM:90nM, anti-RXR (NR concentration 270 nM, RXRa partner concentration 90 nM)
Test Description: PBM binding z-score (relative to random genomic background probes); higher = stronger binding; sequences stand for … in GC…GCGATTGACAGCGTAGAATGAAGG
Decision: PBM binding z-score >= 4 yields met, all other cases yield not met.

>>> df
                     sequence_content  assigned_category
0  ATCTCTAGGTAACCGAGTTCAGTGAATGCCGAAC            not met
1  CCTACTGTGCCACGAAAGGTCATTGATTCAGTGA                met
2  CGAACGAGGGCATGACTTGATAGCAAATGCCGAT            not met
3  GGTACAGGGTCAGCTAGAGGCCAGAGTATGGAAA            not met

Consider the record given below.
[Q] Hi, just wondering whether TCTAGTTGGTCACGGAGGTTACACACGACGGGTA shows PBM binding z-score of 4 or higher.
[A] not met

---

Test system: PPARg DBDmut:RXRa IVT, anti-PPARg (DBD mutation: PPARg1 K132A/R137A, NR concentration 270 nM, RXRa partner concentration 90 nM)
Test Description: PBM binding z-score (relative to random genomic background probes); higher = stronger binding; sequences stand for … in GC…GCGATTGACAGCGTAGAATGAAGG
Decision: PBM binding z-score >= 0.5 yields t, all other cases yield f.

                     sequence_content  assigned_category
0  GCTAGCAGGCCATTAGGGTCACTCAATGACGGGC                  f

[Q] Hi, just wondering whether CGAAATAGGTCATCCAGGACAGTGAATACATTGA shows PBM binding z-score of 0.5 or higher.
[A] t

[Q] Hi, just wondering whether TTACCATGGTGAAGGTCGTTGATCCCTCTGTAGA shows PBM binding z-score of 0.5 or higher.
[A] f

[Q] Hi, just wondering whether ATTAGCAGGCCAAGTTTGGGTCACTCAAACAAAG shows PBM binding z-score of 0.5 or higher.
[A] f

[Q] Hi, just wondering whether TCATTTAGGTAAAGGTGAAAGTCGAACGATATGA shows PBM binding z-score of 0.5 or higher.
[A] t

[Q] Hi, just wondering whether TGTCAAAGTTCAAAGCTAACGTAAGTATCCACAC shows PBM binding z-score of 0.5 or higher.
[A] t

[Q] Hi, just wondering whether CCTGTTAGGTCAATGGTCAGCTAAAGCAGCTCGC shows PBM binding z-score of 0.5 or higher.
[A] f

[Q] Hi, just wondering whether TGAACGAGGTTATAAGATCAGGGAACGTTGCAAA shows PBM binding z-score of 0.5 or higher.
[A] t

[Q] Hi, just wondering whether CAAACTAGGGCAAGGTCAAAGTCGGTTTGTGCCA shows PBM binding z-score of 0.5 or higher.
[A] t

[Q] Hi, just wondering whether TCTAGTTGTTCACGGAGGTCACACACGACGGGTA shows PBM binding z-score of 0.5 or higher.
[A] f

[Q] Hi, just wondering whether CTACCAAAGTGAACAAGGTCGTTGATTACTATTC shows PBM binding z-score of 0.5 or higher.
[A] f

---

Tested on: LXRb:RXRa (NR concentration 270 nM, RXRa partner concentration 90 nM)
Test Description: PBM binding z-score (relative to random genomic background probes); higher = stronger binding; sequences stand for … in GC…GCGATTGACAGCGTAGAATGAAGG
Decision: PBM binding z-score >= 0.9 yields Fulfilled, all other cases yield Not fulfilled.

Look over these answered cases.
                     sequence_content  assigned_category
0  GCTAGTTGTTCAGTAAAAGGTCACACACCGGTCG          Fulfilled
1  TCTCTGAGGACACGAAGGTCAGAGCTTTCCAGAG      Not fulfilled
2  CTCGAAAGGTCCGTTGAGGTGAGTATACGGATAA      Not fulfilled
3  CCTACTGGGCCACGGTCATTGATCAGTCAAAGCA      Not fulfilled

Consider the record given below.
[Q] Hi, just wondering whether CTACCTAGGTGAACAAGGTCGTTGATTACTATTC shows PBM binding z-score of 0.9 or higher.
[A] Fulfilled
